Measured pKi of individual entries
target-system: Adenosine deaminase (Homo sapiens, UniProt P00813)
Sequence (P00813 whole entry): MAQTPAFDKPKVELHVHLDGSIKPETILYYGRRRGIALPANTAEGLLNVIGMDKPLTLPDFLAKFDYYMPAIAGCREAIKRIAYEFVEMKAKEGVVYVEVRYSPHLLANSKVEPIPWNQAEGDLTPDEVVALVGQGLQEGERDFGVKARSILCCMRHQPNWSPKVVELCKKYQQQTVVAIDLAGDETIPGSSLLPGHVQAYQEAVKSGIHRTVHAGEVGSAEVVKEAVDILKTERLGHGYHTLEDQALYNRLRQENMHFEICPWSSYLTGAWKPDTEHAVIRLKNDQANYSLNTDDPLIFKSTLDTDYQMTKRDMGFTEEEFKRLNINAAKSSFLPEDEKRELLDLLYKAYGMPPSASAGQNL
pKi: −log10 of the molar value.
quantity: pKi

molecule	target-system	quantity	value
CCCCCCC(C(C)O)n1cnc2c(N)nccc21 (stereo not drawn)	Adenosine deaminase (Homo sapiens, UniProt P00813)	pKi	8.20
CCCCCCC(C(C)O)n1cnc2c(N)ccnc21 (stereo not drawn)	Adenosine deaminase (Homo sapiens, UniProt P00813)	pKi	6.92
CCCCCCC(C(C)O)n1cnc2c(N)cccc21 (stereo not drawn)	Adenosine deaminase (Homo sapiens, UniProt P00813)	pKi	4.82

----------
Property: pIC50; scope: individual compounds
Tested on: KB
protocol-text: In vitro antitumor activity against human KB cell line at 72 h
Type: functional
run-conditions: read-out: ID50 (the source's name)
pIC50: −log10 of the molar value.
quantity: pIC50

compound	value
CCCCCCC(C(C)O)n1cnc2c(N)ccnc21 (stereo unspecified)	4.31
CCCCCCC(C(C)O)n1cnc2c(N)nccc21 (stereo unspecified)	4.50
Nc1ncnc2c1ncn2[C@@H]1O[C@H](CO)[C@@H](O)[C@@H]1O	4.05
CCCCCCC(C(C)O)n1ccc2c(N)ncnc21 (stereo unspecified)	4.68
CCCCCC[C@@H]([C@@H](C)O)n1cnc2c(N)ncnc21	4.09
CCCCCCC(C(C)O)n1cnc2c(N)cccc21 (stereo unspecified)	4.48

----------
System: P388
protocol-text: In vitro antitumor activity against murine P388 cell line at 72 h
Type: functional
run-conditions: Mus musculus, P388, 72 h; read-out: ID50 (the source's name)
pIC50: −log10 of the molar value.
The entries below are paired with their reported pIC50.

molecule	target-system	pIC50
Nc1ncnc2c1ncn2[C@@H]1O[C@H](CO)[C@@H](O)[C@@H]1O	P388	4.90
CCCCCC[C@@H]([C@@H](C)O)n1cnc2c(N)ncnc21	P388	4.57
CCCCCCC(C(C)O)n1cnc2c(N)ccnc21 (stereo unspecified)	P388	4.01
CCCCCCC(C(C)O)n1ccc2c(N)ncnc21 (stereo unspecified)	P388	4.68
CCCCCCC(C(C)O)n1cnc2c(N)cccc21 (stereo unspecified)	P388	4.20
CCCCCCC(C(C)O)n1cnc2c(N)nccc21 (stereo unspecified)	P388	4.66
